Can you tell me kon for the items I'm about to list?
Tested target: T1, recombinant human IL-6 (human, UniProt P05231 30-212)
T1 construct: Flowed in solution over the captured antibodies
T1 sequence (P05231 30-212 limits assumed): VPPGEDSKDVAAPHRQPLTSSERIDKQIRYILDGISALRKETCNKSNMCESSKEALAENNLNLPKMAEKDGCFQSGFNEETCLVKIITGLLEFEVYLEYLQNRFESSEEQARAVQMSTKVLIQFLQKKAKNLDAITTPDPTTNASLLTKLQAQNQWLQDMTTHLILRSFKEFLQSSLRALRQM
Experiment: SPR (Biacore), supernatant IgG on Protein A, 25 C
Give the number; M⁻¹ s⁻¹ is assumed, so skip it.

Would you kindly share the measured kon for anti-IL-6 antibody, heavy chain WT, light chain A25S (antibody, IgG1, V domains shown, Full IgG1 tested; V domains derived as in m2) VH: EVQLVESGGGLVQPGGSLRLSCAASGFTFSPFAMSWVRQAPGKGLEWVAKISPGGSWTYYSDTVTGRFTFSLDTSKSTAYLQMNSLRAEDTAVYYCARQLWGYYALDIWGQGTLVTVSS VL: DIQLTQSPSSLSASVGDRVTITCSSSISVSYMYWYQQKPGKAPKLLIYDMSNLASGVPSRFSGSGSGTDFTLTISSLQPEDFATYYCMQWSGYPYTFGQGTKVEIK ?
535000

Would you kindly share the measured kon for anti-IL-6 antibody, heavy chain V48I, light chain WT (antibody, IgG1, V domains shown, Full IgG1 tested; V domains derived as in m2) VH: EVQLVESGGGLVQPGGSLRLSCAASGFTFSPFAMSWVRQAPGKGLEWIAKISPGGSWTYYSDTVTGRFTFSLDTSKSTAYLQMNSLRAEDTAVYYCARQLWGYYALDIWGQGTLVTVSS VL: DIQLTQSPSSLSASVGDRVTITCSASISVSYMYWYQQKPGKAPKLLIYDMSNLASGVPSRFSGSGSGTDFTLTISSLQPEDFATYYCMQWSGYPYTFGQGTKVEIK ?
460000

Would you kindly share the measured kon for anti-IL-6 antibody, heavy chain S35H, light chain WT (antibody, IgG1, V domains shown, Full IgG1 tested; V domains derived as in m2) VH: EVQLVESGGGLVQPGGSLRLSCAASGFTFSPFAMHWVRQAPGKGLEWVAKISPGGSWTYYSDTVTGRFTFSLDTSKSTAYLQMNSLRAEDTAVYYCARQLWGYYALDIWGQGTLVTVSS VL: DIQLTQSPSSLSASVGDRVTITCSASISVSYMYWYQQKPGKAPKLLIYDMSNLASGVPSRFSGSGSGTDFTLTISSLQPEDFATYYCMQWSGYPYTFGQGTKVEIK ?
348000

Would you kindly share the measured kon for anti-IL-6 antibody, heavy chain WT, light chain I27F (antibody, IgG1, V domains shown, Full IgG1 tested; V domains derived as in m2) VH: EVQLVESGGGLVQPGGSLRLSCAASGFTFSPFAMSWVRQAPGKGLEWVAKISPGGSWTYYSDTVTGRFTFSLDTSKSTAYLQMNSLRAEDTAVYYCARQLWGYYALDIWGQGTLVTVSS VL: DIQLTQSPSSLSASVGDRVTITCSASFSVSYMYWYQQKPGKAPKLLIYDMSNLASGVPSRFSGSGSGTDFTLTISSLQPEDFATYYCMQWSGYPYTFGQGTKVEIK ?
436000

Would you kindly share the measured kon for anti-IL-6 antibody, heavy chain A97V, light chain WT (antibody, IgG1, V domains shown, Full IgG1 tested; V domains derived as in m2) VH: EVQLVESGGGLVQPGGSLRLSCAASGFTFSPFAMSWVRQAPGKGLEWVAKISPGGSWTYYSDTVTGRFTFSLDTSKSTAYLQMNSLRAEDTAVYYCVRQLWGYYALDIWGQGTLVTVSS VL: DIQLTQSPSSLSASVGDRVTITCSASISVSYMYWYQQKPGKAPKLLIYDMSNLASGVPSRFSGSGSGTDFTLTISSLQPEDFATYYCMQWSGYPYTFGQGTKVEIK ?
311000

// data source = patent US20240209076A1
